Where these numbers come from: the supplement of paper PMC3545927

Experimental target: furin, P09958;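 further: purified furin at 1:10 enzyme:substrate in 50 mM HEPES pH 7.5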
Sequence (P09958 whole entry): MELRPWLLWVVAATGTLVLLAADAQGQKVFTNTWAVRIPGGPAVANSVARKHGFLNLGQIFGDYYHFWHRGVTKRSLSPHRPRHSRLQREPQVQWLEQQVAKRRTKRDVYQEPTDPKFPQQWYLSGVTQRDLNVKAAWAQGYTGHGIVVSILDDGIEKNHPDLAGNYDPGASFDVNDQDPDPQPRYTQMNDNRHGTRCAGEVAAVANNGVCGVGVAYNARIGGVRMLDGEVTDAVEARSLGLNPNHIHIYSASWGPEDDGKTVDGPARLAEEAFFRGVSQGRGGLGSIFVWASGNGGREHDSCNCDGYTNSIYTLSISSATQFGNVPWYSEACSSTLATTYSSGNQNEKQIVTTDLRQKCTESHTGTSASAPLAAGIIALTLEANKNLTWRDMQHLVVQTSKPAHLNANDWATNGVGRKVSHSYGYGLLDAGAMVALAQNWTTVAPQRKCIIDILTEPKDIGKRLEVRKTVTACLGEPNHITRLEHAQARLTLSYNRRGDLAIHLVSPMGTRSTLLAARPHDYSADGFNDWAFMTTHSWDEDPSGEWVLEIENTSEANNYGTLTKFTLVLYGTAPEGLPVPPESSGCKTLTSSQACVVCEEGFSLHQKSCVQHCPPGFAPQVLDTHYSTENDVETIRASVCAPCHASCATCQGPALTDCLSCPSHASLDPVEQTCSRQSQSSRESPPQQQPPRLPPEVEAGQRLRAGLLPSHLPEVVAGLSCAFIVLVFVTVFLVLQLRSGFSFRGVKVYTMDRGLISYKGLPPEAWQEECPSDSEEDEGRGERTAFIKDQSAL
Procedure summary: furin cleavage Z-score vs untreated control; higher = more cleavage, active = 3.5 or more, inactive = 1 or less, 8 variable residues between constant flanks
Run parameters: 15 min
The list shows a part of the results. The true hit rate is not given.
Choose one outcome from this list and give only that: active, inactive

CAMEYCSQHLAGNASASA [HC1709] = inactive

**Query** Query: recorded result category for CALRKRDVSVAGNASASA [FS-1676] in this test
**Result** active

**Query** Hi team, can someone confirm the assay call for CASLLAPGAKAGNASASA [HC361] ?
**Result** inactive

**Query** Hey, what did the test say about CAEVPCHRPLAGNASASA [HC2405] ?
**Result** inactive

**Query** In this assay, the call recorded for CAGRQRKPRPAGNASASA [FS-658] was what?
**Result** inactive

**Query** Given CALEFWEGVFAGNASASA [HC938] , state the outcome it received in this test.
**Result** inactive

**Query** Hi team, can someone confirm the assay call for CARRKRSIEEAGNASASA [FS-2230] ?
**Result** active

**Query** Outcome? CARRSRNVSTAGNASASA [FS-2083]
**Result** active

**Query** Could you kindly confirm the outcome this assay logged for CAGHSRSRRAAGNASASA [FS-241] ?
**Result** active

**Query** Tell me the recorded outcome of this test for CALSKRLGRSAGNASASA [FS-1644] .
**Result** active
